- Test system: LOX IMVI melanoma
- Measurement Notes: NCI-60 one-dose screen, 48 h
- Cond: 10 µM
The panel holds about 83,000 compounds, 20% with a hit somewhere; the sample as a whole holds those more often. Active and inactive are the calls of the source. The calls were made as follows: active = growth percent below 10; inactive = the rest.
Write down one outcome, taken from true (1) for active, false (0) for inactive

The following compounds have reported results that may help.
- COc1cc(C2c3cc4c(cc3C(O)C(CO)C2CO)OCO4)cc(OC)c1OC (stereo not given): false (0)
- COc1cccc2c1O/C(=C\c1ccc([N+](=O)[O-])s1)C2=O: false (0)
- COc1cccc(C(=O)N(c2ccc(F)c(F)c2)C(C(=O)NC(C)(C)C)c2cc3c(C)cc(C)cc3nc2Cl)c1 (stereo not given): false (0)
- COc1cc(N=C2C(=O)N(Cc3ccccc3)c3ccccc32)cc(OC)c1OC: false (0)
- O=C(c1ccccc1)C(Sc1ccccc1)c1ccccc1 (stereo not given): false (0)
- CC(C)/C=N/NC(N)=S: false (0)
- CC(C)C[C@H](NC(=O)Cn1ccc2ccccc2c1=O)B(O)O: false (0)
- CC(=O)Oc1c(C)c(C)c2c(c1C)CCC(C)(CC(=O)OCCCCCCCCCCC[P+](c1ccccc1)(c1ccccc1)c1ccccc1)O2 (stereo not given): true (1)

Query: recorded result category for `O=S(=O)(NC1c2ccccc2Oc2ccccc21)c1ccccc1` in this test
Response: false (0)

Query: recorded result category for COc1ccc(C(C)=O)cc1N1C(=O)C2C(C1=O)C1(c3ccccc3)C(=O)C2(c2ccccc2)C(c2ccc(C)cc2)=C1c1ccc(C)cc1 (stereo not given) in this test
Response: true (1)

====

- Test system: NCI-H226 lung
- Measurement Notes: NCI-60 one-dose screen, 48 h
- Cond: 10 µM
The panel holds about 83,000 compounds, 20% with a hit somewhere; the sample as a whole holds those more often. Active and inactive are the calls of the source. Rule for the calls: active = growth percent below 10; inactive = the rest.
Write down one outcome, taken from Y for active, N for inactive

The following compounds have reported results that may help.
* Cc1nnc2c3nnc(-c4ccc(Cl)cc4)n3c3ccccc3n12 | N
* O=C(Nc1ccc(CN2CCOCC2)cc1)c1ccc(-c2cc(Cl)ccc2Cl)o1 | N

Query: recorded result category for `N#Cc1c(-c2ccccc2)nc(SCC(=O)N2CCOCC2)[nH]c1=O` in this test
Response: N

Query: recorded result category for `Cc1ccc(S(=O)(=O)N2CCc3ccccc3CC2)cc1` in this test
Response: N

Query: recorded result category for `FC(F)(F)c1ccc(-c2nc(-c3nc4cc(Cl)c(Cl)cc4[nH]3)c3ccccn23)cc1` in this test
Response: N

Query: recorded result category for O/N=C1\CCC2CCCCC2C1 (centres undefined) in this test
Response: N

Query: recorded result category for `N#C/C(=C\N1C(=O)/C(=C/c2cccc([N+](=O)[O-])c2)SC1=S)c1nc2ccccc2s1` in this test
Response: N

Query: recorded result category for `O=C(Nc1cccc([N+](=O)[O-])c1)NN1CCCCCC1` in this test
Response: N

Query: recorded result category for `CCCCCCCCCCN=C(c1ccc(N(C)C)cc1)c1ccc(N(C)C)cc1` in this test
Response: N

Query: recorded result category for `S=c1c2ncccc2c(-c2ccccn2)nn1Cc1ccccn1` in this test
Response: N

Query: recorded result category for `O=C(N/N=c1/ccoc2cccnc12)N1CCN(c2ncccn2)CC1` in this test
Response: N

Query: recorded result category for `COc1ccc(S(=O)(=O)Nc2ccc(OCc3nnc(-c4ccc(Cl)cc4)o3)c(F)c2)cc1` in this test
Response: N

Query: recorded result category for Nc1nc2c(ncn2C2OC3COP(=O)(O)OC4C(COP(=O)(O)OC2C3O)OC(n2cnc3c(N)ncnc32)C4O)c(=O)[nH]1 (centres undefined) in this test
Response: N

Query: recorded result category for `C=CCN1C(=O)/C(=C\c2ccc3c(c2)CCC3)SC1=S` in this test
Response: N

Query: recorded result category for `O=S(=O)(NCl)c1ccccc1` in this test
Response: N

Query: recorded result category for `CCc1ccc(-c2nnc(COc3ccc(-c4nc5ccccc5[nH]4)cc3OC)o2)cc1` in this test
Response: N

Query: recorded result category for `CCOC(=O)c1cc2c(n1Cc1cc(OC)cc(OC)c1)-c1oncc1CC2` in this test
Response: N

Query: recorded result category for `Cc1cc(OI)c(C(C)C)cc1-c1cc(C(C)C)c(OI)cc1C` in this test
Response: N

Query: recorded result category for CCC(CCNc1cc(OC)cc2cccnc12)CN1C(=O)c2ccccc2C1=O (centres undefined) in this test
Response: N

Query: recorded result category for `CCNC(=S)NN` in this test
Response: N

Query: recorded result category for `CCOC(=O)c1sc(NC(=O)c2cc(OC)c(OC)c(OC)c2)nc1C` in this test
Response: N

Query: recorded result category for `CC(C)C[C@H](NC(=O)Cn1ccc(Nc2ccccc2)cc1=O)B(O)O` in this test
Response: Y

Query: recorded result category for `CC(C)CCN(CCCNc1c2c(nc3cc(Cl)ccc13)CCCC2)CCC(C)C` in this test
Response: N
